# measurement target: CaBzz1-D1
# assay method text: SPOT peptide array binding signal intensity (averaged, normalized) (arbitrary units (background-subtracted, floor 0; scale differs between SH3 domains)); higher = stronger binding of the SH3 domain to the peptide
observed property: SPOT peptide array binding signal intensity

Reference set (5 entries):
[[record]]
binder = "LYKRKPILLPDPKPL"
value_reported = 150

[[record]]
binder = "GDHPKGPPPPPPPPD"
value_reported = 2370

[[record]]
binder = "PSRRDSLSIPRAVDA"
value_reported = 123

[[record]]
binder = "WTQRRGPLVVYAEDN"
value_reported = 286

[[record]]
binder = "KRNRLKILLPFLEQS"
value_reported = 5


Given the binder "VPPPMQPPPIESSNL" , what is its reported SPOT peptide array binding signal intensity?
35

Item "RPKRRAPPPVPKKPS" has what recorded SPOT peptide array binding signal intensity?
7010

Query: SPOT peptide array binding signal intensity; subject: "VPKEPAPAPPPEPDM"
42.8

For the binder shown here, "RKNRAPPQRPRFNRE" , give the reported SPOT peptide array binding signal intensity.
2100

I have this binder here, "TTNRGPPPLPPRANV" , and I need its recorded SPOT peptide array binding signal intensity.
6090

Could you share which SPOT peptide array binding signal intensity value was measured for "TIRRRAPLSLLESHT" ?
40
